- STUDY SYSTEM: T1, human C-MET His tagged, monomeric (human, UniProt P08581 25-932)
- T1 construct: also called monomeric human C-MET; biotinylated human C-MET-His
- T1 sequence (P08581 25-932): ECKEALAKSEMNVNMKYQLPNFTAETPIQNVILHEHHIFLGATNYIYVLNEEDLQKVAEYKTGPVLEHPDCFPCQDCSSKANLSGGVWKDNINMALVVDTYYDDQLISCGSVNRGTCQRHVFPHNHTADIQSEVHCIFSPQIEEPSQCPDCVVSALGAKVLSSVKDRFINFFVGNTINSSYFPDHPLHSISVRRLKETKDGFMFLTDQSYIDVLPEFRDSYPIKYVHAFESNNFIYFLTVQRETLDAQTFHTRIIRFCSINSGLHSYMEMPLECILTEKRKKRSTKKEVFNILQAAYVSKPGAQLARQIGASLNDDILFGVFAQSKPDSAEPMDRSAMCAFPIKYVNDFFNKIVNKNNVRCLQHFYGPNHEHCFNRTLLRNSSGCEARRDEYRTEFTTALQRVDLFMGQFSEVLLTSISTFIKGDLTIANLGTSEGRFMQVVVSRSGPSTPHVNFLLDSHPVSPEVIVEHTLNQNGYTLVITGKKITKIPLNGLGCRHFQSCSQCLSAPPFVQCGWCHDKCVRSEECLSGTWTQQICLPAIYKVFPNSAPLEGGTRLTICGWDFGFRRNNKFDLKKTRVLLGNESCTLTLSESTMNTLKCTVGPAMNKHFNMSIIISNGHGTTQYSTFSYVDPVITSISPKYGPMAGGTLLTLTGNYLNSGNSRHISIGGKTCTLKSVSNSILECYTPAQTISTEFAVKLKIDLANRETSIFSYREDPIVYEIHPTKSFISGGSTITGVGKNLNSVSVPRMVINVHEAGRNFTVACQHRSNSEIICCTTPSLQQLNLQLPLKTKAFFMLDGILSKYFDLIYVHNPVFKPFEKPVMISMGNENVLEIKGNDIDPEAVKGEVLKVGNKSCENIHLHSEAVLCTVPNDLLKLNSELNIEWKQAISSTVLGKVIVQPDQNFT
- PROTOCOL SUMMARY: SPR Biacore, IgG captured, monomeric C-MET-His analyte
READOUT KIND: pKd
Conceptually, pKd converts a concentration in mol/L into minus its log10.

Solved cases (2 shown):
[[record]]
binder = "MH3 (antibody, IgG4, V domains shown, also called MH03) VH: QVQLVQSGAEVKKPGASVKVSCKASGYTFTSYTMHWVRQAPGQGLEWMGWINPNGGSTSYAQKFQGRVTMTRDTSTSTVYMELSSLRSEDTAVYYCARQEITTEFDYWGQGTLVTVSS VL: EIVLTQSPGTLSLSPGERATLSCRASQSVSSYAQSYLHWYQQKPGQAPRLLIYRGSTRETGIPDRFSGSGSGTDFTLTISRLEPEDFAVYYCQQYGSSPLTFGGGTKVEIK"
readout_kind = "pKd"
numeric_readout = 8.12

[[record]]
binder = "MH11 (antibody, IgG4, V domains shown) VH: QVQLVQSGAEVKKPGASVKVSCKASGYTFTSYAMHWVRQAPGQGLEWMGWINPSGGSTSYAQKFQGRVTMTRDTSTSTVYMELSSLRSEDTAVYYCARQEITTEFDYWGQGTLVTVSS VL: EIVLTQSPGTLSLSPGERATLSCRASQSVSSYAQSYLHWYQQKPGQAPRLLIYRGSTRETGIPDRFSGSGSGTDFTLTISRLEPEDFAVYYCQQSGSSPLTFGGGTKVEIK"
readout_kind = "pKd"
numeric_readout = 8.59


Turning now to a further binder:
I have this binder here, MH7-1 (antibody, human IgG4, V domains shown) VH: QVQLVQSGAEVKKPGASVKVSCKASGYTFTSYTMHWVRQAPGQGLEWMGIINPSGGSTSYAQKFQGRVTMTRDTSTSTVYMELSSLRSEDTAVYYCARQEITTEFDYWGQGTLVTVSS VL: EIVLTQSPGTLSLSPGERATLSCRASQSVSSYANSYLHWYQQKPGQAPRLLIYRGSTRETGIPDRFSGSGSGTDFTLTISRLEPEDFAVYYCQQSKSEPLTFGGGTKVEIK , and I need its recorded pKd.
8.81
